Assay: Cytotoxicity against African green monkey Vero cells assessed as cell viability at 100 uM by MTT assay relative to control
Assay type: cell-based
Conditions: chlorocebus sabaeus, read-out: Activity
measure: viability at 100 µM (%)
Your answer is read as %, so omit the unit and give the number.

Bench note: what viability at 100 µM did COc1cc(/C=N/c2ccccc2C(=O)NNc2ccnc3cc(Cl)ccc23)cc(OC)c1OC show?
89.4

Bench note: what viability at 100 µM did COc1ccc(/C=N/c2ccccc2C(=O)NNc2ccnc3cc(Cl)ccc23)cc1OC show?
89.2

Bench note: what viability at 100 µM did O=C(NNc1ccnc2cc(Cl)ccc12)c1ccccc1/N=C/c1ccncc1 show?
85.7

Bench note: what viability at 100 µM did Cc1ccc(/C=N/c2ccccc2C(=O)NNc2ccnc3cc(Cl)ccc23)cc1 show?
87.1

Bench note: what viability at 100 µM did CN(C)c1ccc(/C=N/c2ccccc2C(=O)NNc2ccnc3cc(Cl)ccc23)cc1 show?
88.8

---

System: Mycobacterium tuberculosis
Assay: Antimycobacterial activity against Mycobacterium tuberculosis H37Rv ATCC 27294 after 5 days by microplate alamar blue assay
Assay type: functional
Details: H37Rv ATCC 27294, 120 h
Rule: measured MIC below 6 µM gets criterion met; anything equal to or greater than 6 µM gets criterion not met.

See these solved cases before continuing.
O=C(NNc1ccnc2cc(Cl)ccc12)c1ccccc1/N=C/c1ccc(Cl)c(Cl)c1	criterion not met
O=C(NNc1ccnc2cc(Cl)ccc12)c1ccccc1/N=C/c1ccncc1	criterion not met
O=C(NNc1ccnc2cc(Cl)ccc12)c1ccccc1/N=C/c1ccc(Cl)cc1	criterion met
O=C(O)c1cn(C2CC2)c2cc(N3CCNCC3)c(F)cc2c1=O [CIPROFLOXACIN]	criterion not met
O=C(NNc1ccnc2cc(Cl)ccc12)c1ccccc1/N=C/c1cccc(Cl)c1Cl	criterion not met

Dear reviewer, please state whether COc1cc(/C=N/c2ccccc2C(=O)NNc2ccnc3cc(Cl)ccc23)ccc1Oc1ccnc2cc(Cl)ccc12 has MIC strictly beneath 6 µM.
criterion met

Dear reviewer, please state whether Cc1ccc(/C=N/c2ccccc2C(=O)NNc2ccnc3cc(Cl)ccc23)cc1 has MIC strictly beneath 6 µM.
criterion met

Dear reviewer, please state whether O=C(NNc1ccnc2cc(Cl)ccc12)c1ccccc1/N=C/c1cccs1 has MIC strictly beneath 6 µM.
criterion not met

Dear reviewer, please state whether O=C(NNc1ccnc2cc(Cl)ccc12)c1ccccc1/N=C/c1cc2ccccc2[nH]c1=O has MIC strictly beneath 6 µM.
criterion not met

Dear reviewer, please state whether O=C(NNc1ccnc2cc(Cl)ccc12)c1ccccc1/N=C/c1ccccc1Cl has MIC strictly beneath 6 µM.
criterion not met

---

Assay: n-octanol/water partition coefficient, log P of the compound
Format: physicochemical
Tag: yes (1) if measured logP is not below 5, no (0) if it is.

O=C(NNc1ccnc2cc(Cl)ccc12)c1ccccc1/N=C/c1ccc(F)cc1	yes (1)
O=C(NNc1ccnc2cc(Cl)ccc12)c1ccccc1/N=C/c1cc2ccccc2[nH]c1=O	no (0)
O=C(NNc1ccnc2cc(Cl)ccc12)c1ccccc1/N=C/c1ccccc1Cl	yes (1)

Proceed to the following item.
Decide: is the reported value of logP for O=C(NNc1ccnc2cc(Cl)ccc12)c1ccccc1/N=C/c1ccc(Cl)cc1 equal to or greater than 5?
yes (1)

---

Test system: Mycobacterium tuberculosis
Assay: Antimycobacterial activity against Mycobacterium tuberculosis H37Rv ATCC 27294 after 5 days by microplate alamar blue assay
Assay type: functional
Settings: H37Rv ATCC 27294, 120 h
The molecules listed here are annotated with their MIC.
Your answer is read as µM, so omit the unit and give the number.

Past entries and their recorded results:
O=C(NNc1ccnc2cc(Cl)ccc12)c1ccccc1/N=C/c1ccc(F)cc1	6.25
COc1cc(/C=N/c2ccccc2C(=O)NNc2ccnc3cc(Cl)ccc23)cc(OC)c1OC	6.25
CN(C)c1ccc(/C=N/c2ccccc2C(=O)NNc2ccnc3cc(Cl)ccc23)cc1	3.12
O=C(NNc1ccnc2cc(Cl)ccc12)c1ccccc1/N=C/c1ccc(Cl)cc1Cl	6.25

Next item in the queue.
// fetch Mycobacterium tuberculosis MIC for O=C(NNc1ccnc2cc(Cl)ccc12)c1ccccc1/N=C/c1ccc([N+](=O)[O-])cc1
25

---

The compounds listed here are annotated with their logP.
Test: n-octanol/water partition coefficient, log P of the compound
Assay type: physicochemical
Hey, just send me the number, nothing else.

Past entries and their recorded results:
O=C(NNc1ccnc2cc(Cl)ccc12)c1ccccc1/N=C/c1cccc(Cl)c1Cl	6.1
O=C(NNc1ccnc2cc(Cl)ccc12)c1ccccc1/N=C/c1cc2ccccc2nc1Cl	6
NC(=O)c1cnccn1 [PYRAZINAMIDE]	-0.71
O=C(NNc1ccnc2cc(Cl)ccc12)c1ccccc1/N=C/c1ccncc1	3.86
O=C(NNc1ccnc2cc(Cl)ccc12)c1ccccc1/N=C/c1ccc([N+](=O)[O-])cc1	4.58

Bench note: what logP did COc1ccc(/C=N/c2ccccc2C(=O)NNc2ccnc3cc(Cl)ccc23)cc1OC show?
4.97

Bench note: what logP did O=C(NNc1ccnc2cc(Cl)ccc12)c1ccccc1/N=C/c1ccc(Br)cc1 show?
5.76

Bench note: what logP did COc1cc(/C=N/c2ccccc2C(=O)NNc2ccnc3cc(Cl)ccc23)ccc1Oc1ccnc2cc(Cl)ccc12 show?
7.74

---

The molecules listed here are annotated with their MIC.
Test system: Mycobacterium tuberculosis
Experiment: Antimycobacterial activity against Mycobacterium tuberculosis H37Rv ATCC 27294 after 5 days by microplate alamar blue assay
Assay type: functional
Conditions: H37Rv ATCC 27294, 120 h
Your answer is read as µM, so omit the unit and give the number.

NC(=O)c1cnccn1 [PYRAZINAMIDE]	3.12
O=C(NNc1ccnc2cc(Cl)ccc12)c1ccccc1/N=C/C=C/c1ccccc1	3.12
COc1ccc(/C=N/c2ccccc2C(=O)NNc2ccnc3cc(Cl)ccc23)cc1	1.56
O=C(NNc1ccnc2cc(Cl)ccc12)c1ccccc1/N=C/c1ccc(Br)cc1	6.25
O=C(NNc1ccnc2cc(Cl)ccc12)c1ccccc1/N=C/c1ccc(O)cc1	25

Bench note: what MIC did N#Cc1ccc(/C=N/c2ccccc2C(=O)NNc2ccnc3cc(Cl)ccc23)cc1 show?
25

Bench note: what MIC did COc1ccc(/C=N/c2ccccc2C(=O)NNc2ccnc3cc(Cl)ccc23)cc1OC show?
6.25

Bench note: what MIC did O=C(NNc1ccnc2cc(Cl)ccc12)c1ccccc1/N=C/c1cc2ccccc2nc1Cl show?
25

---

Assay: Cytotoxicity against African green monkey Vero cells assessed as cell viability at 100 uM by MTT assay relative to control
Format: cell-based
Conditions: chlorocebus sabaeus, read-out: Activity
measure: viability at 100 µM

Past entries and their recorded results:
COc1cc(/C=N/c2ccccc2C(=O)NNc2ccnc3cc(Cl)ccc23)ccc1Oc1ccnc2cc(Cl)ccc12	89.5%
O=C(NNc1ccnc2cc(Cl)ccc12)c1ccccc1/N=C/c1cc2ccccc2nc1Cl	94.3%
O=C(NNc1ccnc2cc(Cl)ccc12)c1ccccc1/N=C/c1ccc(Cl)cc1Cl	87.6%
N#Cc1ccc(/C=N/c2ccccc2C(=O)NNc2ccnc3cc(Cl)ccc23)cc1	87.2%

Bench note: what viability at 100 µM did O=C(NNc1ccnc2cc(Cl)ccc12)c1ccccc1/N=C/c1ccc([N+](=O)[O-])cc1 show?
88.6%

Bench note: what viability at 100 µM did COc1ccc(/C=N/c2ccccc2C(=O)NNc2ccnc3cc(Cl)ccc23)cc1 show?
88.9%

---

Test: n-octanol/water partition coefficient, log P of the compound
Format: physicochemical
measure: logP
Hey, just send me the number, nothing else.

Past entries and their recorded results:
O=C(NNc1ccnc2cc(Cl)ccc12)c1ccccc1/N=C/C=C/c1ccccc1	5.54
N#Cc1ccc(/C=N/c2ccccc2C(=O)NNc2ccnc3cc(Cl)ccc23)cc1	4.83
O=C(NNc1ccnc2cc(Cl)ccc12)c1ccccc1/N=C/c1cccs1	4.78

Bench note: what logP did O=C(NNc1ccnc2cc(Cl)ccc12)c1ccccc1/N=C/c1ccc(O)cc1 show?
4.65

Bench note: what logP did O=C(NNc1ccnc2cc(Cl)ccc12)c1ccccc1/N=C/c1ccc(Cl)c(Cl)c1 show?
6.22

Bench note: what logP did CN(C)c1ccc(/C=N/c2ccccc2C(=O)NNc2ccnc3cc(Cl)ccc23)cc1 show?
5.03

Bench note: what logP did O=C(NNc1ccnc2cc(Cl)ccc12)c1ccccc1/N=C/c1ccc(Cl)cc1Cl show?
6.22

Bench note: what logP did Cc1ccc(/C=N/c2ccccc2C(=O)NNc2ccnc3cc(Cl)ccc23)cc1 show?
5.31

Bench note: what logP did COc1ccc(/C=N/c2ccccc2C(=O)NNc2ccnc3cc(Cl)ccc23)cc1 show?
5

---

Experiment: Cytotoxicity against African green monkey Vero cells assessed as cell viability at 100 uM by MTT assay relative to control
Format: cell-based
Conditions: chlorocebus sabaeus, read-out: Activity
The compounds listed here are annotated with their viability at 100 µM.
Your answer is read as %, so omit the unit and give the number.

Past entries and their recorded results:
O=C(NNc1ccnc2cc(Cl)ccc12)c1ccccc1/N=C/c1ccc(Br)cc1	88.5
O=C(NNc1ccnc2cc(Cl)ccc12)c1ccccc1/N=C/c1ccccc1Cl	88.5
O=C(NNc1ccnc2cc(Cl)ccc12)c1ccccc1/N=C/c1ccc(Cl)cc1	86.7
O=C(NNc1ccnc2cc(Cl)ccc12)c1ccccc1/N=C/c1ccc(F)cc1	90.7
O=C(NNc1ccnc2cc(Cl)ccc12)c1ccccc1/N=C/c1ccc(O)cc1	90.1
O=C(NNc1ccnc2cc(Cl)ccc12)c1ccccc1/N=C/c1cccs1	89.5

Bench note: what viability at 100 µM did O=C(NNc1ccnc2cc(Cl)ccc12)c1ccccc1/N=C/c1cccc(Cl)c1Cl show?
89.1

Bench note: what viability at 100 µM did O=C(NNc1ccnc2cc(Cl)ccc12)c1ccccc1/N=C/c1ccc(Cl)c(Cl)c1 show?
90.2

Bench note: what viability at 100 µM did O=C(NNc1ccnc2cc(Cl)ccc12)c1ccccc1/N=C/c1cc2ccccc2[nH]c1=O show?
91.1

Bench note: what viability at 100 µM did O=C(NNc1ccnc2cc(Cl)ccc12)c1ccccc1/N=C/C=C/c1ccccc1 show?
90.2
